Test: Intrinsic cytotoxicity, EZ4U assay, HeLa
Assay type: cell-based, human
Conditions: human, HeLa cells, compound alone, 3 days
Provide the recorded CC50 at 3 days for the entries that follow.
API: value field is a number in µM; no unit string.

### Prompt Return value of CC50 at 3 days for input CC1(C)[C@@H]2CC[C@@]1(CS(=O)(=O)Nc1nnc(C34CC5CC(CC(C5)C3)C4)s1)C(=O)C2 , no commentary.
### Response 100

### Prompt Annotate the compound CC1(C)[C@@H]2CC[C@@]1(C(=O)Nc1nnc(C34CC5CC(CC(C5)C3)C4)s1)C(=O)C2 with its measured CC50 at 3 days.
### Response 20

### Prompt Hello, please tell me recorded CC50 at 3 days for this one: CC1=CC[C@H](CCSc2nc(C34CC5CC(CC(C5)C3)C4)n[nH]2)C1(C)C [14a]
### Response 53

### Prompt Report measured CC50 at 3 days; entry is CC1=CC[C@@H](CCSc2nc(C34CC5CC(CC(C5)C3)C4)n[nH]2)C1(C)C [14b]
### Response 54

* * *

Kindly state melting point for each of the entries shown.
Your answer is read as °C, so omit the unit and give the number.

### Prompt Give me measured melting point, please, for this compound: CC1=CC[C@@H](CC(=O)Nc2nnc(C34CC5CC(CC(C5)C3)C4)s2)C1(C)C [15b]
### Response 210.9

### Prompt Supply reported melting point belonging to this compound: CC1(C)[C@@H]2CC[C@@]1(C(=O)Nc1nnc(C34CC5CC(CC(C5)C3)C4)s1)C(=O)C2
### Response 269.6

### Prompt Write down melting point measured for item CC1=CC[C@H](CCSc2nc(C34CC5CC(CC(C5)C3)C4)n[nH]2)C1(C)C [14a]
### Response 113.5

* * *

Parameter IC50, tested on TDP1 (Homo sapiens, UniProt Q9NUW8), listed per item.
Sequence (Q9NUW8 whole entry): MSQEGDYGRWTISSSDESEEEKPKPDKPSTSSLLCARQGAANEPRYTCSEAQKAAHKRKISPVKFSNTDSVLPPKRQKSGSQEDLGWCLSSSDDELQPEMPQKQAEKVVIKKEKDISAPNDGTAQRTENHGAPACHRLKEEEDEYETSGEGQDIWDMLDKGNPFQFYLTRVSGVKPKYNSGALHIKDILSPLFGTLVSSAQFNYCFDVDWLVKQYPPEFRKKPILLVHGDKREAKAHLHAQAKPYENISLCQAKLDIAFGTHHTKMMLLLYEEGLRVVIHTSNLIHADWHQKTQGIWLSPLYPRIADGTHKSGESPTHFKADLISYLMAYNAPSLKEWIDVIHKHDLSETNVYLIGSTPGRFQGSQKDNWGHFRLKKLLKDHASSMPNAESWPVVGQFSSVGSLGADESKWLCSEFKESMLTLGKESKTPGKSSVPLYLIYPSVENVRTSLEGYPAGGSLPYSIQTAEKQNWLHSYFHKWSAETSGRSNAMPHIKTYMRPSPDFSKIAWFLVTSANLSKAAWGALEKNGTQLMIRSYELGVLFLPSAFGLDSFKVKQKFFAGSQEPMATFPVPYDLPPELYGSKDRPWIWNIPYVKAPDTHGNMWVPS
Field: numeric (µM). Do not append units.

### Prompt // Input: CC1=CC[C@H](CCSc2nc(C34CC5CC(CC(C5)C3)C4)n[nH]2)C1(C)C [14a] . Output its IC50 only.
### Response 5.5

### Prompt Let me know recorded IC50 for CC1=CC[C@H](CC(=O)Nc2nnc(C34CC5CC(CC(C5)C3)C4)s2)C1(C)C [15a] , thanks.
### Response 6.1

### Prompt Report IC50 for CC1=CC[C@@H](CCSc2nc(C34CC5CC(CC(C5)C3)C4)n[nH]2)C1(C)C [14b]
### Response 6.1

* * *

Assay: Influence of compounds on topotecan cytotoxicity, HEK293A
Format: cell-based, human
Details: human, HEK293A cells; topotecan alone; read-out: Tpc CC50 HEK293A
attribute measured: CC50 at 3 days (nM)
# value in nM; strip the unit string

### Prompt Answer with reported CC50 at 3 days of CC[C@@]1(O)C(=O)OCc2c1cc1n(c2=O)Cc2cc3c(CN(C)C)c(O)ccc3nc2-1
### Response 66

* * *

Could you please report measured CC50 at 3 days for the items listed next?
Experiment: Intrinsic cytotoxicity, EZ4U assay, HEK293A
Format: cell-based
Details: human, HEK293A cells, compound alone

### Prompt Give the reported CC50 at 3 days for this compound. CC1(C)[C@@H]2CC[C@@]1(CS(=O)(=O)Nc1nnc(C34CC5CC(CC(C5)C3)C4)s1)C(=O)C2
### Response > 100 µM

### Prompt For the compound CC1=CC[C@H](CC(=O)Nc2nnc(C34CC5CC(CC(C5)C3)C4)s2)C1(C)C [15a] , give its measured CC50 at 3 days value.
### Response > 100 µM

### Prompt Supply measured CC50 at 3 days of CC1=CC[C@@H](CC(=O)Nc2nnc(C34CC5CC(CC(C5)C3)C4)s2)C1(C)C [15b] in your reply.
### Response > 100 µM
